Assay notes: Intrinsic clearance in human liver microsomes
Format: ADME
Protocol conditions: read-out: CLH
Lab note: anything with microsomal CLint at or over 3 µL/min/mg counts as yes (1); the rest go in no (0).

// below: answered compounds
- Compound structure: "O=C1c2cccc3[nH]c(=O)n(c23)CCN1[C@@H]1CN2CCC1CC2"
  Discrete label: "yes (1)"
- Compound structure: "O=C1c2cccc3cnn(c23)CCN1[C@@H]1CN2CCC1CC2"
  Discrete label: "no (0)"
- Compound structure: "COc1cc2c3c(cnn3CCN([C@@H]3CN4CCC3CC4)C2=O)c1"
  Discrete label: "no (0)"
- Compound structure: "O=C1c2cccc3ccn(c23)CCN1[C@@H]1CN2CCC1CC2"
  Discrete label: "no (0)"
- Compound structure: "Cc1cn2c3c(cc(Cl)cc13)C(=O)N([C@@H]1CN3CCC1CC3)CC2"
  Discrete label: "no (0)"

Ask | Answer whether microsomal CLint of `O=C1c2cc(Cl)cc3cnn(c23)CCN1[C@@H]1CN2CCC1CC2` is greater than or equal to 3 µL/min/mg.
Reply | yes (1)

Ask | Answer whether microsomal CLint of `O=C1c2cc(F)cc3cnn(c23)CCN1[C@@H]1CN2CCC1CC2` is greater than or equal to 3 µL/min/mg.
Reply | yes (1)
